Origin of values: patent US20210380703A1

- experimentalTarget: human ACVR2A (human, UniProt P27037 20-135, limits assumed); further: test concentration or dose not given here
- Sequence (P27037 20-135 limits assumed): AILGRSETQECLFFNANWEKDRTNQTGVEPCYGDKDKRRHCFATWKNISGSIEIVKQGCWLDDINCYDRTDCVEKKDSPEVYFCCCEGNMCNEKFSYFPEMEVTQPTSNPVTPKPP
- experimentNotes: ELISA
quantityKind: optical density

Exercise: Give the reported optical density for this binder. 371_F05 (antibody, V domains shown, VH/VL only) VH: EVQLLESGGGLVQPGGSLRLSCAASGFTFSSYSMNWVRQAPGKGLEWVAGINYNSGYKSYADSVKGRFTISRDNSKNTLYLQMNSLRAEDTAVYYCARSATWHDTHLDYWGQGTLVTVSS VL: DIQMTQSPSSLSASVGDRVTITCRASQSILSYLNWYQQKPGKAPKLLIYAATSRHSGVPSRFSGSGSGTDFTLTISSLQPEDFATYYCQQSYENPLTFGGGTKVEIK
Key: 2.89 OD

Exercise: Name the recorded optical density of the item 376_A12 (antibody, V domains shown, VH/VL only) VH: EVQLLESGGGLVQPGGSLRLSCAASGFTFSSYSMNWVRQAPGKGLEWVANINYNSGYKGYADSVKGRFTISRDNSKNTLYLQMNSLRAEDTAVYYCARSANWHDTALDYWGQGTLVTVSS VL: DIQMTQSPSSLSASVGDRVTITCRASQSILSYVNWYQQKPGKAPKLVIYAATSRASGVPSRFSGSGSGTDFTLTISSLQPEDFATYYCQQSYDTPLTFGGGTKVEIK in your answer.
Key: 3.7 OD
